test system: Rhodotorula mucilaginosa; assay: Antimicrobial activity against Rhodotorula mucilaginosa by broth microdilution method; format: functional
recorded.metric: MIC50 (µg/mL)
Record the value in µg/mL, omitting the unit from your answer.

// query Recall the recorded MIC50 for C[C@@H]1[C@H](O)[C@@H](C)/C=C/C=C/C=C/C=C/C=C/C=C/C=C/[C@H](O[C@@H]2O[C@H](C)[C@@H](O)[C@H](N)[C@@H]2O)C[C@@H]2O[C@](O)(C[C@@H](O)C[C@@H](O)[C@H](O)CC[C@@H](O)C[C@@H](O)CC(=O)O[C@H]1C)C[C@H](O)[C@H]2C(=O)O [AMPHOTERICIN B] with Rhodotorula mucilaginosa and state it.
// result 0.12

// query Recall the recorded MIC50 for CCC(C)n1ncn(-c2ccc(N3CCN(c4ccc(OCC5COC(Cn6cncn6)(c6ccc(Cl)cc6Cl)O5)cc4)CC3)cc2)c1=O (centres undefined) [ITRACONAZOLE] with Rhodotorula mucilaginosa and state it.
// result 8

----------
Each entry below carries its reported MIC90.
system: Trichosporon jirovecii; experiment: Antimicrobial activity against Trichosporon jirovecii by broth microdilution method; assay type: functional; settings: Cutaneotrichosporon jirovecii
*1 amine or outer side, *2 acyl side, *3 side chain or, on linkers, in order; H or OH if unused. Where a SMILES comes first, the peptide text is derived from it. Bridges are numbered along the chain shown (N, C = ends). [ ]: non-standard residue; d: D form. The star is where a group is joined. pTerphenylCO(4''-OnC5H11) = CCCCCOc1ccc(-c2ccc(-c3ccc(C(=O)*)cc3)cc2)cc1; Orn(4R-OH,5R-OH) = O=C([C@H](C[C@@H](O)[C@@H](O)N[*:3])N[*:1])[*:2]; hTyr(3S-OH,4S-OH) = N[C@H](C(=O)O)[C@H](O)[C@@H](O)c1ccc(O)cc1; Pro(3S-OH,4S-Me) = C[C@H]1CN[C@H](C(=O)O)[C@H]1O; Hyp = O=C(O)[C@@H]1C[C@@H](O)CN1

Here's what some known entries look like.
molecule	endpoint.result
Nc1nc(=O)[nH]cc1F	> 64 µg/mL
C[C@@H]1[C@H](O)[C@@H](C)/C=C/C=C/C=C/C=C/C=C/C=C/C=C/[C@H](O[C@@H]2O[C@H](C)[C@@H](O)[C@H](N)[C@@H]2O)C[C@@H]2O[C@](O)(C[C@@H](O)C[C@@H](O)[C@H](O)CC[C@@H](O)C[C@@H](O)CC(=O)O[C@H]1C)C[C@H](O)[C@H]2C(=O)O	8 µg/mL
CCC(C)n1ncn(-c2ccc(N3CCN(c4ccc(OCC5COC(Cn6cncn6)(c6ccc(Cl)cc6Cl)O5)cc4)CC3)cc2)c1=O (stereo not given)	> 8 µg/mL
CCCCCOc1ccc(-c2ccc(-c3ccc(C(=O)N[C@H]4C[C@@H](O)[C@@H](O)NC(=O)[C@@H]5[C@@H](O)[C@@H](C)CN5C(=O)[C@H]([C@@H](C)O)NC(=O)[C@H]([C@H](O)[C@@H](O)c5ccc(O)cc5)NC(=O)[C@@H]5C[C@@H](O)CN5C(=O)[C@H]([C@@H](C)O)NC4=O)cc3)cc2)cc1 [ANIDULAFUNGIN] ({pTerphenylCO(4''-OnC5H11)}-[Orn(4R-OH,5R-OH)]T[Hyp][hTyr(3S-OH,4S-OH)]T[Pro(3S-OH,4S-Me)]; lactam 1-C)	> 16 µg/mL

From here, focus on the item given below.
// query Report MIC90 for `CC[C@@H]([C@H](C)O)n1ncn(-c2ccc(N3CCN(c4ccc(OC[C@@H]5CO[C@@](Cn6cncn6)(c6ccc(F)cc6F)C5)cc4)CC3)cc2)c1=O` please.
// result > 8 µg/mL
